From: PubChem BioAssay (EPA / NIEHS)

- protocol summary: ATG_Oct_MLP_CIS: Attagene CIS-FACTORIAL HepG2 Assay for human Octamer-Binding Transcription Factor (Oct) (AID 2282993)
- experimental conditions: HepG2 Attagene cis-factorial Oct reporter, mRNA; actives raise or lower the signal
Active and inactive are the calls of the source. How the source made its calls: active means hit-call score of the fitted dose curve at least 0.9, where 1 is the maximum; inactive means score below 0.9.
Outcome codes: active, inactive

compound: O=C1OC(=O)c2cc(Oc3ccc4c(c3)C(=O)OC4=O)ccc21
group label: inactive

compound: O=C(c1ccccc1)c1ccc(O)c(O)c1O
group label: inactive

compound: Cc1ccc2c(c1)C(=O)c1ccccc1C2=O
group label: inactive

compound: O=S(=O)(O)c1ccc2cc(O)c(S(=O)(=O)O)cc2c1
group label: inactive

compound: CCCCCCCCCCc1ccccc1
group label: active

compound: CCCCCCCC/C=C\CCCCCCCC(=O)O
group label: inactive

compound: O=C(C=Cc1ccccc1)OCc1ccccc1
group label: inactive

compound: CO[Si](OC)(OC)c1ccccc1
group label: inactive

compound: CC(CC=O)CCCC(C)(C)O (stereo unspecified)
group label: inactive

compound: CC(C)=CCC[C@H](C)CCO
group label: inactive

compound: O=C(Nc1ccccc1SSc1ccccc1NC(=O)c1ccccc1)c1ccccc1
group label: inactive

====

- tested target: human Peroxisome Proliferator-activated Receptor alpha (PPARa), PPARA (gene 5465) (UniProt Q07869)
- Sequence (Q07869 whole entry, looked up): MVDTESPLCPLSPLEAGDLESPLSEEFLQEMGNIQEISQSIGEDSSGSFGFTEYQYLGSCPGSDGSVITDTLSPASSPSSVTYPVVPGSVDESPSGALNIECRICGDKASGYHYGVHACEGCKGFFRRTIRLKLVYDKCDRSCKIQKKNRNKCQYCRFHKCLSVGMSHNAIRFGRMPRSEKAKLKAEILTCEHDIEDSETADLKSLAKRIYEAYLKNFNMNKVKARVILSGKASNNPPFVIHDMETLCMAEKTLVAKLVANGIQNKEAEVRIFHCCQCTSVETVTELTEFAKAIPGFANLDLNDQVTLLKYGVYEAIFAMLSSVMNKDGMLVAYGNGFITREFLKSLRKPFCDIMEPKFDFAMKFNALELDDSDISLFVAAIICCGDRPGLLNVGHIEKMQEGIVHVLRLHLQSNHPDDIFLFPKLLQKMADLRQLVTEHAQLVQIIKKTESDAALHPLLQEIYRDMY
- protocol summary: ATG_PPARa_TRANS: Attagene TRANS-FACTORIAL HepG2 Assay for human Peroxisome Proliferator-activated Receptor alpha (PPARa) (AID 2283001)
Inconclusive results are not listed. The source made the active and inactive calls. Rule for the calls: active = hit-call score of the fitted dose curve at least 0.9, where 1 is the maximum; inconclusive = response in the unintended direction; inactive = score below 0.9.
Outcome codes: active, inactive

compound: CCCCCCCCCCCCCCCCCC#N
group label: inactive
//
compound: c1ccc(CNCc2ccccc2)cc1
group label: inactive
//
compound: CC(C)(Oc1ccc(C2CC2(Cl)Cl)cc1)C(=O)O (configuration not stated)
group label: active
//
compound: Cc1cccc(C(=O)O)c1
group label: inactive
//
compound: C=CC(=O)OCCOC(=O)C=C
group label: inactive
//
compound: CCCOC(=O)CCCCC(=O)OCCC
group label: inactive
//
compound: O=C1C=CC(=O)O1
group label: inactive
//
compound: CCCCC/C=C\CCC=O
group label: inactive
//
compound: CC(=O)NS(=O)(=O)c1ccc(N)cc1
group label: inactive
//
compound: Nc1ccc(Cl)cc1Cl
group label: inactive
//
compound: C=C(C)C(=O)OCCO
group label: inactive
//
compound: c1ccc2c(c1)ccc1ncccc12
group label: inactive
//
compound: CCCCCCCC/C=C\CCCCCCCC(=O)O
group label: active
//
compound: O=C1c2cccc(O)c2C(=O)c2c(O)cc(CO)cc21
group label: inactive
//
compound: COC(=O)c1sccc1S(N)(=O)=O
group label: inactive
//
compound: COCC(C)N (configuration not stated)
group label: inactive
//
compound: O=C(O)CCCC[C@@H]1SC[C@@H]2NC(=O)N[C@@H]21
group label: inactive
//
compound: CC(=O)[C@@]1(O)CC[C@H]2[C@@H]3C[C@H](C)C4=CC(=O)C=C[C@]4(C)[C@@]3(F)[C@@H](O)C[C@@]21C
group label: inactive
//
compound: CCc1c(C(=O)O)c(=O)cnn1-c1ccc(Cl)cc1
group label: inactive
//
compound: CCOC(=O)[C@H](C)O
group label: inactive
//
compound: c1ccc2c(c1)ccc1cc3c(ccc4ccccc43)cc12
group label: inactive
//
compound: COC(=O)c1ccc2cc(C(=O)OC)ccc2c1
group label: inactive
//
compound: Nc1ccc2cc3ccccc3cc2c1
group label: inactive
//
compound: CC(C)=CC1CC(C)CCO1 (configuration not stated)
group label: inactive
//
compound: CCCCCCCCCCCSCC(=O)O
group label: active
//
compound: C=CC(C)(C)C
group label: inactive
//
compound: C=CC(=O)OCCC(=O)O
group label: inactive
